System: TTR (gene 7276)
RUN_DESCRIPTION: CCTE_GLTED_hTTR_0.125uM: CCTE's human Transthyretin (hTTR) Inhibition Assay, with 0.125uM TTR, Great Lakes Toxicology and Ecology Division (GLTED) Lab (AID 2284431);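 also: hits lower the fluorescence signal relative to DMSO baseline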
Calls of active or inactive are those of the source. The calls were made as follows: active = hit-call score of the fitted dose curve at least 0.9, where 1 is the maximum; inactive = score below 0.9.
Classes used: active, inactive

MOLECULE: CCCCCc1ccc(N)cc1
CATEGORY: active
//
MOLECULE: CCCCOC(=O)c1ccc(O)cc1
CATEGORY: active
//
MOLECULE: COCC(C)OCC(C)OCC(C)O (stereo not given)
CATEGORY: inactive
//
MOLECULE: O=C(O)Cc1cc(I)c(Oc2ccc(O)c(I)c2)c(I)c1
CATEGORY: active
//
MOLECULE: CC(C)(c1cc(Br)c(O)c(Br)c1)c1cc(Br)c(O)c(Br)c1
CATEGORY: active

====

SYSTEM_NAME: Cellular tumor antigen p53 (Homo sapiens)
RUN_DESCRIPTION: TOX21_p53_BLA_p5_ratio: Tox21 HCT-116 p53 Agonism Beta-lactamase Assay, Ratio, Phase 5 (AID 2283599)
Records with an inconclusive call do not appear. The source made the active and inactive calls. How the source made its calls: active means hit-call score of the fitted dose curve at least 0.9, where 1 is the maximum; inconclusive means response in the unintended direction; inactive means score below 0.9.
Classes used: active, inactive

SMILES_STRING: CC1(C)NC(=O)N(c2ccc([N+](=O)[O-])c(C(F)(F)F)c2)C1=O
CATEGORY: inactive
//
SMILES_STRING: COc1cc(C(=O)NC2CCN(C)CC2)ccc1Nc1ncc2c(n1)N(C1CCCC1)CC(F)(F)C(=O)N2C
CATEGORY: active
//
SMILES_STRING: Clc1cc(Cl)c2c(c1)N=C1CCCCCN1C2
CATEGORY: inactive
//
SMILES_STRING: NC(=O)c1nc(-c2cccc(-c3cc(F)ccc3OCC(F)(F)C(F)(F)F)c2)n[nH]1
CATEGORY: active
//
SMILES_STRING: Cc1cc(F)ccc1-c1cc(N2CC[C@@H](O)[C@H]2CO)ncc1N(C)C(=O)C(C)(C)c1cc(C(F)(F)F)cc(C(F)(F)F)c1
CATEGORY: active
//
SMILES_STRING: CCCCCCCCOC(=O)c1cc(O)c(O)c(O)c1
CATEGORY: active
//
SMILES_STRING: O=C=NCCCCCCN=C=O
CATEGORY: inactive
//
SMILES_STRING: CCCCCCCC[Si](OCC)(OCC)OCC
CATEGORY: inactive
//
SMILES_STRING: O=C(O)c1ccccc1C(=O)OCc1ccccc1
CATEGORY: inactive
//
SMILES_STRING: O=C(OCCCCCCOC(=O)c1ccccc1)c1ccccc1
CATEGORY: inactive
//
SMILES_STRING: O=C(O)Cn1c(=O)n(Cc2ccc(Br)cc2F)c(=O)c2ccc(Cl)cc21
CATEGORY: inactive
//
SMILES_STRING: CN(C[C@@H](CC[N+]12CCC(C3CCCCC3)(CC1)CC2)c1ccc(Cl)c(Cl)c1)C(=O)c1cc(C(F)(F)F)cc(C(F)(F)F)c1
CATEGORY: active
//
SMILES_STRING: Cc1cn([C@H]2C[C@H](N=[N+]=[N-])[C@@H](CO)O2)c(=O)[nH]c1=O
CATEGORY: inactive
//
SMILES_STRING: CCCCCCCCCCCO
CATEGORY: inactive
//
SMILES_STRING: CCOC(=O)O[C@H](C)OC(=O)c1ccc2c(c1)cc(C(=O)NC1CCN(C(C)C)CC1)n2Cc1cc(-c2ccc(Cl)s2)on1
CATEGORY: active
//
SMILES_STRING: Cc1ccc2oc(CN(Cc3ccccc3)C(=O)Nc3c(F)cc(F)cc3F)c(-c3ccc(Cl)cc3)c2c1
CATEGORY: inactive
//
SMILES_STRING: c1ccc2ccccc2c1
CATEGORY: inactive
//
SMILES_STRING: Cc1oc2c(NC(=O)c3c(Cl)cccc3Cl)cccc2c1C(C)(C)O
CATEGORY: inactive
//
SMILES_STRING: O=C1c2ccccc2C(=O)N1CCc1noc(-c2ccc(CN3CCCCCC3)s2)n1
CATEGORY: inactive
//
SMILES_STRING: CC(C)(C)c1cc(/C=C2\SC(N)=NC2=O)cc(C(C)(C)C)c1O
CATEGORY: active
//
SMILES_STRING: CN(C)C(=O)C1(N2CCCCC2)CCN(CC[C@@]2(c3ccc(Cl)c(Cl)c3)CN(C(=O)c3ccccc3)CCO2)CC1
CATEGORY: active

====

Read-out: solute carrier (SLC22A1), SLC22A1 (gene 6580)
RUN_DESCRIPTION: LTEA_HepaRG_SLC22A1: Life Technologies and Expression Analysis (LTEA) Assay for solute carrier (SLC22A1) using HepaRG (AID 2283524)
TEST_SETTINGS: mRNA level, 48 h; actives raise or lower the signal
The source made the active and inactive calls. How the source made its calls: active means hit-call score of the fitted dose curve at least 0.9, where 1 is the maximum; inactive means score below 0.9.
Classes used: YES = active, NO = inactive

SMILES_STRING: CC1(C)NC(=O)N(c2ccc([N+](=O)[O-])c(C(F)(F)F)c2)C1=O
CATEGORY: YES

SMILES_STRING: C[C@]12CC[C@@H]3c4ccc(O)cc4CC[C@H]3[C@@H]1CCC2=O
CATEGORY: YES

SMILES_STRING: CCCCCc1ccc(N)cc1
CATEGORY: NO

SMILES_STRING: CCCCCCCCOc1ccc(C(=O)c2ccccc2)c(O)c1
CATEGORY: NO

SMILES_STRING: O=c1[nH]sc2ccccc12
CATEGORY: NO

SMILES_STRING: Clc1cc(Cl)c2c(c1)N=C1CCCCCN1C2
CATEGORY: NO

SMILES_STRING: CCN(Cc1cccnc1)C(=O)c1cccc(Cl)c1[C@]1(C)C(=O)N(Cc2ccc(OC)cc2OC)c2ccc(Cl)cc21
CATEGORY: YES

SMILES_STRING: CC(C)(C)c1cc(/C=C2\SC(N)=NC2=O)cc(C(C)(C)C)c1O
CATEGORY: YES

SMILES_STRING: O=C1c2ccccc2C(=O)N1CCc1noc(-c2ccc(CN3CCCCCC3)s2)n1
CATEGORY: NO

SMILES_STRING: CCCCCCCCCCCC[N+](C)(C)C
CATEGORY: YES

SMILES_STRING: Clc1ccccc1C(c1ccccc1)(c1ccccc1)n1ccnc1
CATEGORY: YES

====

SYSTEM_NAME: Cellular tumor antigen p53 (Homo sapiens) (UniProt P04637)
Sequence (P04637 whole entry, looked up): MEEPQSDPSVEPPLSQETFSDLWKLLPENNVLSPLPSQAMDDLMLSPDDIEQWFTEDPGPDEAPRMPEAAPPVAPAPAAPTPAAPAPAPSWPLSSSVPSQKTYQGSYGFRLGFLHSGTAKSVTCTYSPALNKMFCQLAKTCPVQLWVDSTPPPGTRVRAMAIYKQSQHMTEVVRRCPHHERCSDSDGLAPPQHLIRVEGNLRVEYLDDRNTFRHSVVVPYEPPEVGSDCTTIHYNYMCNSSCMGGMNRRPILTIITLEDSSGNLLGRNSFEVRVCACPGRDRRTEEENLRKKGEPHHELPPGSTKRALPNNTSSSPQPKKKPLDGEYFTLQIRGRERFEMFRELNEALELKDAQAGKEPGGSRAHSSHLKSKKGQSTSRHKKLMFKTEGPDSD
RUN_DESCRIPTION: ATG_p53_CIS: Attagene CIS-FACTORIAL HepG2 Assay for human p53 Transcription Factor (AID 2282994)
TEST_SETTINGS: HepG2 p53 cis-element reporter, Attagene mRNA; actives raise or lower the signal
The source made the active and inactive calls. Rule for the calls: active = hit-call score of the fitted dose curve at least 0.9, where 1 is the maximum; inactive = score below 0.9.
Classes used: true (1) = active, false (0) = inactive

COMPOUND: CC(C)(O)c1ccc(CNC(=O)c2cccnc2Oc2ccc3nonc3c2)cc1
CATEGORY: false (0)

COMPOUND: CN1C(=O)N(c2ccccc2Br)Cc2cnc(Nc3ccc4c(c3)OCC(CO)O4)nc21 (centres undefined)
CATEGORY: true (1)

COMPOUND: Cc1ccc2oc(CN(Cc3ccccc3)C(=O)Nc3c(F)cc(F)cc3F)c(-c3ccc(Cl)cc3)c2c1
CATEGORY: false (0)

COMPOUND: CCCCCCCCCCCO
CATEGORY: false (0)

COMPOUND: O=C(O)Cn1c(=O)n(Cc2ccc(Br)cc2F)c(=O)c2ccc(Cl)cc21
CATEGORY: false (0)

COMPOUND: CCCCCCCCCCCC[N+](C)(C)C
CATEGORY: false (0)

COMPOUND: OCCO
CATEGORY: false (0)

COMPOUND: CCN(Cc1cccnc1)C(=O)c1cccc(Cl)c1[C@]1(C)C(=O)N(Cc2ccc(OC)cc2OC)c2ccc(Cl)cc21
CATEGORY: true (1)

COMPOUND: O=C(O)c1ccccc1-n1cc(C(=O)O)c(=O)c2cc(Nc3c(F)cc(F)cc3Cl)c(Cl)cc21
CATEGORY: false (0)

COMPOUND: COc1ccc2cc(S(=O)(=O)N[C@H](CC(=O)N[C@H](Cc3ccc(CN4[C@H](C)CCC[C@@H]4C)cc3)C(=O)N(C)C(C)C)c3ccc4c(c3)OCO4)ccc2c1
CATEGORY: true (1)

COMPOUND: O=c1ccc2ccccc2o1
CATEGORY: false (0)

COMPOUND: O=C1O[C@H]([C@@H](O)CO)C(O)=C1O
CATEGORY: false (0)

COMPOUND: O=C(Nc1ccc(Cl)cc1)Nc1ccc(Cl)c(Cl)c1
CATEGORY: false (0)

COMPOUND: CC(C)(C)c1csc(-c2cc3cc(OCc4ccccc4CC(=O)O)ccc3o2)n1
CATEGORY: false (0)

COMPOUND: CCCCOC(=O)c1ccc(O)cc1
CATEGORY: false (0)

COMPOUND: CCCCCCCCOc1ccc(C(=O)c2ccccc2)c(O)c1
CATEGORY: false (0)

COMPOUND: CCCCCCCCN(C)CCCCCCCC
CATEGORY: false (0)

COMPOUND: Cc1c2ccccc2c(C)c2c1ccc1ccccc12
CATEGORY: false (0)

COMPOUND: c1ccc2n[nH]nc2c1
CATEGORY: false (0)

COMPOUND: CC(C)(C)c1cc(/C=C2\SC(N)=NC2=O)cc(C(C)(C)C)c1O
CATEGORY: true (1)

COMPOUND: Cc1cccc2ccccc12
CATEGORY: false (0)

COMPOUND: O=c1[nH]sc2ccccc12
CATEGORY: true (1)

COMPOUND: COc1cc(C(=O)NC2CCN(C)CC2)ccc1Nc1ncc2c(n1)N(C1CCCC1)CC(F)(F)C(=O)N2C
CATEGORY: true (1)

COMPOUND: NCc1cccc(C2CCN(C(=O)c3ccc(C#Cc4ccccc4F)o3)CC2)c1
CATEGORY: false (0)
